# target-under-test: F508delCFTR (Homo sapiens, UniProt P13569, DEL508-508)
# Construct: expressed in transfected cells; host or cells: CFBE41o- human lung derived epithelial cells (CFBE41o-F508delCFTR-HRP), doxycycline-inducible
# Sequence (P13569 with tags, fused parts or gaps DEL508-508): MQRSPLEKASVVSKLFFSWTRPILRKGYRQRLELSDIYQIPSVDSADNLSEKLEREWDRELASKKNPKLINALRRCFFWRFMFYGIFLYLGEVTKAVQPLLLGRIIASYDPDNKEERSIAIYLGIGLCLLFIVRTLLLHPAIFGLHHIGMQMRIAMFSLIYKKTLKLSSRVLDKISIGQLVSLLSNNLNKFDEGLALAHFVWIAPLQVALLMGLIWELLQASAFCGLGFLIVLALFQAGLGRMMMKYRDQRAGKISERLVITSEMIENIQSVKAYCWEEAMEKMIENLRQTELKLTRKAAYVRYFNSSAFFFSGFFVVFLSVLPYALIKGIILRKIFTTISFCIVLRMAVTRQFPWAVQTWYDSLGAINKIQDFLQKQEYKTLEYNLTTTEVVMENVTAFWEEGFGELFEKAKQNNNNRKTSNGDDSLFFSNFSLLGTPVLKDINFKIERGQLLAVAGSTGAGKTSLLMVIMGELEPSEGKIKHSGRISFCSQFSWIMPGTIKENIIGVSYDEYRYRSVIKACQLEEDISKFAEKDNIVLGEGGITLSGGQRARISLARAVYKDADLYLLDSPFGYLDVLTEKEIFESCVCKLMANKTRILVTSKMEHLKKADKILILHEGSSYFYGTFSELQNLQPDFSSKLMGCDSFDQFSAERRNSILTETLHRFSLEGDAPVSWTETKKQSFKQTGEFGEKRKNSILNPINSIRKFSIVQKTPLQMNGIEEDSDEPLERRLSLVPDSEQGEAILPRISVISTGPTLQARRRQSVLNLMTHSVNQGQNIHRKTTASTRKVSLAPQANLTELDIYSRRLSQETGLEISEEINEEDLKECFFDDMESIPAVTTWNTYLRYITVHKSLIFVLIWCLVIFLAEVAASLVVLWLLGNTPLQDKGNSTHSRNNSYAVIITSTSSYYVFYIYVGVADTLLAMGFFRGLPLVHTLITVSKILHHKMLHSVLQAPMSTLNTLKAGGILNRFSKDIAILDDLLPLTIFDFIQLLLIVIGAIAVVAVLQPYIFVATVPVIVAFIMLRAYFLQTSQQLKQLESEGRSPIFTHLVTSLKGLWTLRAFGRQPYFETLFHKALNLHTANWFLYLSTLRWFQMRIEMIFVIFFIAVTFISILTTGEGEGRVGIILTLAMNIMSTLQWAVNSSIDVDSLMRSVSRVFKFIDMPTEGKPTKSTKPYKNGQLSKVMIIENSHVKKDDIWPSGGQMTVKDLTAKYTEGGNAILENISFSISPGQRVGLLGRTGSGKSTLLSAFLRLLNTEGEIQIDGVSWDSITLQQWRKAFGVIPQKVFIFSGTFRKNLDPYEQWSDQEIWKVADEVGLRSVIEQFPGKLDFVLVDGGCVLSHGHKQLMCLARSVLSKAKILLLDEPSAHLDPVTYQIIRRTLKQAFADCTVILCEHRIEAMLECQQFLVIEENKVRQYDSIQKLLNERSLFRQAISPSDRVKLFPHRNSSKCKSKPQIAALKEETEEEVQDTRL
# protocol-summary: Cell Surface Expression-Horse Radish Peroxidase (CSE-HRP) Assay;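 further: % of on-plate positive control chromenyl benzoic acid corrector at 2 or 3 µM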
# Assay type: cell-based
# test-settings: without co-corrector; maximum at any tested concentration; read-out: Maximum % activity (without co-corrector)
endpoint: Emax

// solved cases for Emax follow
Problem: Entry CCOc1ccc(C)cc1C1(C(=O)NS(=O)(=O)c2cccc3nc(N(C)C)ccc23)CC1 : reported Emax = ?
Solution: > 150%

Problem: State the recorded Emax for this entry: Cc1ccc(O[C@H]2CCOC2)c(C2(C(=O)NS(=O)(=O)c3cccc4ncccc34)CC2)c1
Solution: > 150%

Problem: // returns reported Emax for input COC(=O)c1csc(S(=O)(=O)NC(=O)C2(c3ccc(Cl)cc3Cl)CC2)c1OC
Solution: < 50%

---
Problem: Query (compound): COC(=O)C1(c2ccc(OC)c(C3(C(=O)NS(=O)(=O)c4cccc5ncccc45)CC3)c2)CC1 ; field requested: Emax
Solution: > 150%

Problem: Fill in: Emax of O=C(NS(=O)(=O)Cc1ccccc1)C1(c2ccccc2Cl)CC1 is ___
Solution: < 50%

Problem: Consider the compound shown here: CCOc1ccc(C(C)(C)OCC)cc1C1(C(=O)NS(=O)(=O)c2cccc3nc(C)ccc23)CC1 What is its recorded Emax?
Solution: > 150%

Problem: Look up Emax: Cc1ccc(C2(C(=O)NS(=O)(=O)c3ccccc3)CC2)cc1
Solution: < 50%

Problem: Using the record for COc1ncc(C(F)(F)F)cc1C1(C(=O)NS(=O)(=O)c2cccc3cnn(C)c23)CC1 , report its Emax.
Solution: > 150%

Problem: Look up Emax: CNC1(c2ccc(OC)c(C3(C(=O)NS(=O)(=O)c4cccc5ncccc45)CC3)c2)CC1
Solution: < 50%

Problem: Any idea what Emax was measured for COc1ccc(C(C)(C)C)cc1C1(C(=O)NS(=O)(=O)c2cccc3c2CCCN3)CC1 ?
Solution: > 150%

Problem: GET /values?readout=Emax&item= CCc1cnc(OCC(C)C)c(C2(C(=O)NS(=O)(=O)c3cccc4[nH]ncc34)CC2)c1
Solution: > 150%

Problem: Give its Emax value. Item: CCC(CC)S(=O)(=O)NC(=O)C1(c2ccccc2)CC1
Solution: < 50%

Problem: Request the reported Emax associated with CCOc1ccc(C(C)(C)COC)cc1C1(C(=O)NS(=O)(=O)c2cccc3nc(C)ccc23)CC1
Solution: > 150%

Problem: What measured Emax goes with COc1ccc(C(C)OC)cc1C1(C(=O)NS(=O)(=O)c2cccc3ncccc23)CC1 (stereo not shown) ?
Solution: > 150%

Problem: Record request: Emax value, item Cc1cnc(OC(C)C)c(C2(C(=O)NS(=O)(=O)c3cccc4nc(N)ccc34)CC2)c1
Solution: > 150%

Problem: Endpoint output: Emax of COc1ncc(C(F)(F)F)cc1C1(C(=O)NS(=O)(=O)c2cccc3ccccc23)CC1 . Value?
Solution: > 150%

Problem: Data request, read-out Emax, for Cc1ccc(OC(C)C)c(C2(C(=O)NS(=O)(=O)c3cccc4ncccc34)CC2)c1
Solution: > 150%

Problem: Return reported Emax; argument: Cc1cccc(C2(C(=O)NS(=O)(=O)c3ccccc3C)CCOCC2)c1
Solution: < 50%
